src = ChEMBL document CHEMBL5360622

pIC50: −log10 of the molar value.
Notes on pIC50 obtained with Dual specificity protein kinase CLK3 (Homo sapiens, UniProt P49761).
Sequence (P49761 whole entry): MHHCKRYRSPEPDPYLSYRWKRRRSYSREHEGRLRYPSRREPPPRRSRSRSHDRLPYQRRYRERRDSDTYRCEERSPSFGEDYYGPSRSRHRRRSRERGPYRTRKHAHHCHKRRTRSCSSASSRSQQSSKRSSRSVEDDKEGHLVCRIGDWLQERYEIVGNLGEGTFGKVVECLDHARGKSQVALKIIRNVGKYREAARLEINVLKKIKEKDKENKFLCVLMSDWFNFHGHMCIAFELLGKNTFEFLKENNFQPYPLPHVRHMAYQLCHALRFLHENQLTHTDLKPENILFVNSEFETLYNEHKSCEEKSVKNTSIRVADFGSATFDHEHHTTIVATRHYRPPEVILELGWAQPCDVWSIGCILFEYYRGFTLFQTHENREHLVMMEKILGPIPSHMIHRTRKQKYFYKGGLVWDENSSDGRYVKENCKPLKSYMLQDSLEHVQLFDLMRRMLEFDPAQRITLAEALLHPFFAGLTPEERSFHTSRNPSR
Quantity name: pIC50

I = O=C1NC(N[C@@H](CO)CC2CCC2)=N/C1=C\c1ccc2ncsc2c1
II = O=C1NC(NCc2ccncc2)=N/C1=C\c1ccc2ncsc2c1
III = O=C1NC(NC2CCCCCC2)=N/C1=C\c1ccc2ncoc2c1
IV = O=C1NC(NC2CCCCC2(F)F)=N/C1=C\c1ccc2ncsc2c1 (racemic)
query: Sort the entries above by pIC50, largest first. Give the order by naming the labels one after another as requested.
result: IV, III, I, II

---

Glycogen synthase kinase-3 beta (Homo sapiens, UniProt P49841) data, read-out IC50
Sequence (P49841 whole entry): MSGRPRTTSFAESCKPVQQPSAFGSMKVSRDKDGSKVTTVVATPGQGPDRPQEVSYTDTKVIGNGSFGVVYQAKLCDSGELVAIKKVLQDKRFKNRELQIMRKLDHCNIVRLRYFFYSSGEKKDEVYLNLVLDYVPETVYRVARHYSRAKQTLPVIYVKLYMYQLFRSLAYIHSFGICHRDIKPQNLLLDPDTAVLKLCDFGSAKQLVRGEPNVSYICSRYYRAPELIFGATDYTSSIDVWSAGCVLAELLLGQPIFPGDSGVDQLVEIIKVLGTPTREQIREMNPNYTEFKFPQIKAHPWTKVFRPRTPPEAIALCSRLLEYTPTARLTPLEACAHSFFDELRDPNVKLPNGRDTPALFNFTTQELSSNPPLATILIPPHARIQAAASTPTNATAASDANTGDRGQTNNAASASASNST
Quantity name: IC50 (µM)

Here's what some known entries look like.
# Compound, IC50, µM
data = [
    ("Cn1cnc2ccc(/C=C3\\N=C(NC45CC6CC(CC(C6)C4)C5)NC3=O)cc21", 1.54),
    ("O=C1NC(NC2CCCC(F)(F)C2)=N/C1=C\\c1ccc2ncsc2c1 (racemic)", 5.69),
]

A = CC(C)(C)NC(=O)OC12CC3CC(CC(NC4=N/C(=C\c5ccc6ncsc6c5)C(=O)N4)(C3)C1)C2
B = O=C1NC(N[C@@H]2CCCC[C@H](O)C2)=N/C1=C\c1ccc2ncsc2c1 (racemic)
query: Of A and B , which carries the smaller reported IC50 figure? Your choice should be expressed through its label.
result: A
(A: 1.8 µM, B: 6.04 µM)

---

Target: Glycogen synthase kinase-3 beta (Homo sapiens)
Quantity name: IC50 (µM)

Below, each entry is followed by its recorded IC50 result.
# Compound, System under test, Value
data = [
    ("O=C1NC(NCc2cccnc2)=N/C1=C\\c1ccc2ncsc2c1", "Glycogen synthase kinase-3 beta (Homo sapiens)", 2.84),
    ("O=C1NC(N[C@H]2c3ccccc3C[C@@H]2O)=N/C1=C\\c1ccc2ncsc2c1", "Glycogen synthase kinase-3 beta (Homo sapiens)", 0.429),
    ("O=C1NC(NCc2ccncc2)=N/C1=C\\c1ccc2ncsc2c1", "Glycogen synthase kinase-3 beta (Homo sapiens)", 3.26),
    ("O=C1NC(N[C@H]2CC[C@H](O)CC2)=N/C1=C\\c1ccc2ncsc2c1", "Glycogen synthase kinase-3 beta (Homo sapiens)", 9.62),
    ("C[C@@H]1CCCC[C@H]1NC1=N/C(=C\\c2ccc3ncsc3c2)C(=O)N1 (racemic)", "Glycogen synthase kinase-3 beta (Homo sapiens)", 8.36),
    ("Cc1csc(CNC2=N/C(=C\\c3ccc4ncsc4c3)C(=O)N2)n1", "Glycogen synthase kinase-3 beta (Homo sapiens)", 2.15),
]

P = O=C1NC(NC2CC3(CCC3)C2)=N/C1=C\c1ccc2ncsc2c1
Q = O=C1NC(NCc2ccccc2C(F)(F)F)=N/C1=C\c1ccc2ncsc2c1
query: Thinking about recorded IC50 values, which is higher, P or Q ? Reply briefly: the label of your chosen item.
result: Q

P = O=C1NC(N[C@@H]2CCCC[C@@H](O)C2)=N/C1=C\c1ccc2ncsc2c1 (racemic)
Q = CN1CC[C@@](C)(NC2=N/C(=C\c3ccc4ncsc4c3)C(=O)N2)C1=O (stereo in doubt)
query: Lab note: record which item had the higher IC50, P or Q . Choose, then provide that item's label.
result: P

---

pIC50, Dual specificity protein kinase CLK2 (Homo sapiens, UniProt P49760): measured values
pIC50: −log10 of the molar value.
Quantity name: pIC50

# Compound, pIC50
rows = [
    ("O=C1NC(NC2CCCCCC2)=N/C1=C\\c1ccc2nnsc2c1", 5.55),
]

A = O=C1NC(Nc2ccccn2)=N/C1=C\c1ccc2ncsc2c1
B = O=C1NC(NC2CCCCCC2)=N/C1=C\c1ccc2c(c1)CCO2
C = CC[C@H](CO)NC1=N/C(=C\c2ccc3ncsc3c2)C(=O)N1
D = O=C1NC(NC2CCCCCC2)=N/C1=C\c1ccc2[nH]ncc2c1
E = Cc1ccc(NC2=N/C(=C\c3ccc4ncsc4c3)C(=O)N2)cc1F
query: Form: Sort by [pIC50] Order [ ascending ] Response field: labels, in requested order.
result: E, B, D, C, A

a = O=C1NC(NCC(O)Cc2ccccc2)=N/C1=C\c1ccc2ncsc2c1 (racemic)
b = Cn1cc2cc(/C=C3\N=C(NC4CCCCCC4)NC3=O)ccc2n1
c = O=C1NC(NCCc2ccccn2)=N/C1=C\c1ccc2ncsc2c1
d = O=C1NC(NC2CCNC2=O)=N/C1=C\c1ccc2ncsc2c1 (racemic)
query: I would appreciate it if you could sort these 4 compounds by pIC50, starting from the smallest number. API: response body holds the labels in the requested order.
result: b, d, c, a

1 = C[C@@H](NC1=N/C(=C\c2ccc3ncsc3c2)C(=O)N1)C1CCCCC1
2 = Cn1cc2cc(/C=C3\N=C(NC4CCCCC4)NC3=O)ccc2n1
3 = C[C@@H]1CCCC[C@H]1NC1=N/C(=C\c2ccc3ncsc3c2)C(=O)N1 (racemic)
4 = O=C1NC(NC2CCCCC2)=N/C1=C\c1ccc2c(c1)OCO2
query: Rank descending by pIC50. Rank them, then answer with their labels in that order.
result: 3, 1, 4, 2
(3: 6.94, 1: 6.52, 4: 6.02, 2: 5.20)

1 = CC(C)C[C@H](COC1CC1)NC1=N/C(=C\c2ccc3ncsc3c2)C(=O)N1
2 = CC1(C)CNC(=O)C1NC1=N/C(=C\c2ccc3ncsc3c2)C(=O)N1 (racemic)
query: Which is greater in pIC50, the first item 1 or the second item 2 ? Write down the label attached to your selection.
result: 1

---

pIC50: −log10 of the molar value.
Measured pIC50 (Dual specificity protein kinase CLK4 (Homo sapiens, UniProt Q9HAZ1))
Quantity name: pIC50

Below: 5 molecules and their reported pIC50.
# Molecule, pIC50
measured = [
    ("Cn1cnc2ccc(/C=C3\\N=C(NC45CC6CC(CC(C6)C4)C5)NC3=O)cc21", 8.52),
    ("Cc1nc2ccc(/C=C3\\N=C(NC45CC6CC(CC(C6)C4)C5)NC3=O)cc2s1", 7.70),
    ("COc1ccc(/C=C2\\N=C(Nc3ccc(N4CCN(C)CC4)cc3)NC2=O)cc1O", 7.92),
    ("COC(=O)[C@H](CC(C)C)NC1=N/C(=C\\c2ccc3ncsc3c2)C(=O)N1", 7.77),
    ("O=C1NC(NC23CC4CC(CC(C4)C2)C3)=N/C1=C\\c1ccc2[nH]ncc2c1", 8.40),
]

I = COC(=O)[C@@H](NC1=N/C(=C\c2ccc3ncsc3c2)C(=O)N1)C(C)O (stereo partly specified)
II = CC1(C)C2CCC1(C)[C@H](NC1=N/C(=C\c3ccc4ncsc4c3)C(=O)N1)C2 (stereo partly specified)
III = Cn1ncc2cc(/C=C3\N=C(NC45CC6CC(CC(C6)C4)C5)NC3=O)ccc21
query: Sort ascending by pIC50. Your reply should list the labels following the order given in the request.
result: III, II, I
(III: 6.90, II: 7.96, I: 8.52)

I = O=C1NC(NC23CC4CC(CC(C4)C2)C3)=N/C1=C\c1ccc2[nH]cnc2c1
II = O=C1NC(NCc2ccccc2OC(F)(F)F)=N/C1=C\c1ccc2ncsc2c1
query: Lowest pIC50? choose I or II To answer, give the label that identifies your chosen option.
result: II

---

As an illustration, consider measured pIC50 for molecules on Cyclin-dependent kinase 5/CDK5 activator 1 (Homo sapiens).
Sequence (Q00535 whole entry): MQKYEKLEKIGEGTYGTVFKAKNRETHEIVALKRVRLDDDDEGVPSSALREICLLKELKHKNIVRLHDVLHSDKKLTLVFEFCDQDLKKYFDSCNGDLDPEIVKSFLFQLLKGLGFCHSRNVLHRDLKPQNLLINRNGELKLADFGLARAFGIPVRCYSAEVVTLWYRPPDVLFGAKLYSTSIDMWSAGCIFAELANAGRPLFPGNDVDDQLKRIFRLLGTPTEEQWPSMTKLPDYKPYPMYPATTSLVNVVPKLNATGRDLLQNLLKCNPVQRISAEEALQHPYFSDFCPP
Sequence (Q15078 whole entry, further chain): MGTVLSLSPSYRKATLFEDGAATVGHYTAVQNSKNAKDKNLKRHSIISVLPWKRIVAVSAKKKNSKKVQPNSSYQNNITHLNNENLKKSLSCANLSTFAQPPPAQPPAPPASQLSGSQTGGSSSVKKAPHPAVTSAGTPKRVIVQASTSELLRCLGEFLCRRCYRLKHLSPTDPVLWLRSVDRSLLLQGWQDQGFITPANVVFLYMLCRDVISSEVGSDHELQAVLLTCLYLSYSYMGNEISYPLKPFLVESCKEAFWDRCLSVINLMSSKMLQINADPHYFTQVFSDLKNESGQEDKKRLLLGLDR
pIC50: −log10 of the molar value.

# Molecule, Value
rows = [
    ("CC(C)C[C@H](CO)NC1=N/C(=C\\c2ccc3ncsc3c2)C(=O)N1", "< 5.00"),
    ("COC(=O)[C@H](CC(C)C)NC1=N/C(=C\\c2ccc3ncsc3c2)C(=O)N1", "< 5.00"),
]

query: Find pIC50 (Cyclin-dependent kinase 5/CDK5 activator 1 (Homo sapiens)) for the entry CO[C@H]1CCCC[C@H]1NC1=N/C(=C\c2ccc3ncsc3c2)C(=O)N1 (racemic)
result: < 5.00

query: Observed pIC50 on Cyclin-dependent kinase 5/CDK5 activator 1 (Homo sapiens) for "O=C1NC(NCc2cccnc2)=N/C1=C\c1ccc2ncsc2c1" , please.
result: < 5.00

query: API: value(readout=pIC50, system=Cyclin-dependent kinase 5/CDK5 activator 1 (Homo sapiens)) for record "O=C1NC(NC[C@H](O)c2ccccc2)=N/C1=C\c1ccc2ncsc2c1"
result: < 5.00

query: Give recorded pIC50 with Cyclin-dependent kinase 5/CDK5 activator 1 (Homo sapiens) for the following molecule: "O=C1NC(N[C@@H]2CCCOC2)=N/C1=C\c1ccc2ncsc2c1"
result: < 5.00

query: Can you look up pIC50 on Cyclin-dependent kinase 5/CDK5 activator 1 (Homo sapiens) for CN1CCCC(NC2=N/C(=C\c3ccc4ncsc4c3)C(=O)N2)C1=O (racemic) ?
result: < 5.00

query: What pIC50 appears in the records for this molecule with Cyclin-dependent kinase 5/CDK5 activator 1 (Homo sapiens)? O=C1NC(NC(CF)c2ccccc2)=N/C1=C\c1ccc2ncsc2c1 (racemic)
result: < 5.00

query: Notebook: pull reported pIC50 for Cyclin-dependent kinase 5/CDK5 activator 1 (Homo sapiens), entry "O=C1NC(NCc2nc3ccccc3s2)=N/C1=C\c1ccc2ncsc2c1"
result: < 5.00

query: Notebook entry, Cyclin-dependent kinase 5/CDK5 activator 1 (Homo sapiens) assay: pIC50 of "O=C1NC(N[C@H]2c3ccccc3C[C@@H]2O)=N/C1=C\c1ccc2ncsc2c1" = ?
result: < 5.00

query: Notebook: pull reported pIC50 for Cyclin-dependent kinase 5/CDK5 activator 1 (Homo sapiens), entry "CC(C)(C)NC(=O)OC12CC3CC(CC(NC4=N/C(=C\c5ccc6ncsc6c5)C(=O)N4)(C3)C1)C2"
result: < 5.00

query: API: value(readout=pIC50, system=Cyclin-dependent kinase 5/CDK5 activator 1 (Homo sapiens)) for record O=C1NC(NC2CCCCOC2)=N/C1=C\c1ccc2ncsc2c1 (racemic)
result: 5.41

query: Can you look up pIC50 on Cyclin-dependent kinase 5/CDK5 activator 1 (Homo sapiens) for COC(CNC1=N/C(=C\c2ccc3ncsc3c2)C(=O)N1)c1ccccc1 (racemic) ?
result: < 5.00
